System: human osteosarcoma cell line SJSA-1
Test: Inhibition of proliferation of human osteosarcoma cell line SJSA-1 (DAPI staining, In Cell Analyzer)
Conditions: Homo sapiens, SJSA-1, 72 h, read-out: IC50 (nM), inhibitory activity on proliferation of human osteosarcoma cell line SJSA-1, SJSA-1, incubated 72 h
RESULT TYPE: IC50 (nM)
The response must be a number in nM with no trailing unit.

Problem: Supply measured IC50 of COc1cc(C(=O)N(C)C)ccc1-c1nc2c(n1C(C)C)[C@@]1(C(=O)Nc3cc(Cl)ccc31)N(c1cc(Cl)ccc1C)C2=O [Example S-68] in your reply.
Result: 1700

Problem: Supply measured IC50 of CCOc1ncc(-c2nc3c(n2C(C)C)[C@]2(C(=O)Nc4cc(Cl)ccc42)N(c2cc(F)cc(Cl)c2)C3=O)c(OC)n1 [Example R-180] in your reply.
Result: 2170

Problem: Supply measured IC50 of COc1cc(OC)c(-c2nc3c(n2C(C)C)[C@]2(C(=O)Nc4cc(Cl)ccc42)N(c2cc(Cl)ccc2C)C3=O)cc1F [Example R-92] in your reply.
Result: 4880

Problem: Supply measured IC50 of COc1ccc(C(=O)N(C)C)cc1-c1nc2c(n1C(C)C)[C@@]1(C(=O)Nc3cc(Cl)ccc31)N(c1cc(Cl)ccc1C)C2=O [Example S-22] in your reply.
Result: 7.46

Problem: Supply measured IC50 of COc1cc(OC)c(-c2nc3c(n2C(C)C)[C@]2(C(=O)Nc4cc(Cl)ccc42)N(c2cc(Cl)ccc2C)C3=O)cn1 [Example R-11] in your reply.
Result: 1510

Problem: Supply measured IC50 of COc1cc(N(C)C)ncc1-c1nc2c(n1C(C)C)[C@]1(C(=O)Nc3cc(Cl)ccc31)N(c1cc(Cl)cnc1C)C2=O [Example R-155] in your reply.
Result: 1520

====

Assay: Pharmacokinetics in ICR mice after intravenous and intragastric administration
Format: in vivo
Conditions: male, ICR, mouse, plasma, iv, 2 mg/kg, IV 2 mg/kg, ICR mice, Mean; read-out: Tmax
RESULT TYPE: Tmax (min)
The response must be a number in min with no trailing unit.

Problem: Supply measured Tmax of `COc1ccc(-c2nc3c(n2C(C)C)[C@@]2(C(=O)Nc4cc(Cl)ccc42)N(c2cc(Cl)ccc2C)C3=O)c(OC)c1` in your reply.
Result: 4.98

Problem: Supply measured Tmax of COc1ncc(-c2nc3c(n2C(C)C)[C@H](c2ccc(Cl)cc2)N(c2cc(Cl)cn(C)c2=O)C3=O)c(OC)n1 [HDM201, reference compound] in your reply.
Result: 4.98

Problem: Supply measured Tmax of `COc1cc(N(C)C)ccc1-c1nc2c(n1C(C)C)[C@@]1(C(=O)Nc3cc(Cl)ccc31)N(c1cc(Cl)ccc1C)C2=O` in your reply.
Result: 4.98

Problem: Supply measured Tmax of `COc1ncc(-c2nc3c(n2C(C)C)[C@@]2(C(=O)Nc4cc(Cl)ccc42)N(c2cc(Cl)ccc2C)C3=O)c(OC)n1` in your reply.
Result: 31.7

Problem: Supply measured Tmax of `COc1cc(OC)c(-c2nc3c(n2C(C)C)[C@@]2(C(=O)Nc4cc(Cl)ccc42)N(c2cc(Cl)ccc2C)C3=O)cn1` in your reply.
Result: 30

Problem: Supply measured Tmax of `COc1ncc(-c2nc3c(n2C(C)C)[C@@]2(C(=O)Nc4cc(Cl)ccc42)N(c2cccc(Cl)c2)C3=O)c(OC)n1` in your reply.
Result: 4.98

====

Test: Pharmacokinetics in ICR mice after intravenous and intragastric administration
Format: in vivo
Conditions: male, ICR, mouse, plasma, iv, 2 mg/kg, ICR mice, IV 2 mg/kg, individual animal
RESULT TYPE: AUC(0-inf) (ng·h/mL)
The response must be a number in ng·h/mL with no trailing unit.

Problem: Supply measured AUC(0-inf) of `COc1ncc(-c2nc3c(n2C(C)C)[C@@]2(C(=O)Nc4cc(Cl)ccc42)N(c2cc(Cl)ccc2F)C3=O)c(OC)n1` in your reply.
Result: 2770

Problem: Supply measured AUC(0-inf) of `COc1ncc(-c2nc3c(n2C(C)C)[C@@]2(C(=O)Nc4cc(Cl)ccc42)N(c2cc(F)cc(Cl)c2)C3=O)c(OC)n1` in your reply.
Result: 1830

Problem: Supply measured AUC(0-inf) of `COc1cc(C(C)C)ccc1-c1nc2c(n1C(C)C)[C@@]1(C(=O)Nc3cc(Cl)ccc31)N(c1cc(Cl)ccc1C)C2=O` in your reply.
Result: 7630

Problem: Supply measured AUC(0-inf) of `COc1cc(OC)c(-c2nc3c(n2C(C)C)[C@@]2(C(=O)Nc4cc(Cl)ccc42)N(c2cc(Cl)cnc2C)C3=O)cn1` in your reply.
Result: 1260

Problem: Supply measured AUC(0-inf) of `CCOc1cc(OC)c(-c2nc3c(n2C(C)C)[C@@]2(C(=O)Nc4cc(Cl)ccc42)N(c2cc(Cl)ccc2F)C3=O)cn1` in your reply.
Result: 10500

Problem: Supply measured AUC(0-inf) of `COc1nc(C2CC2)ncc1-c1nc2c(n1C(C)C)[C@@]1(C(=O)Nc3cc(Cl)ccc31)N(c1cc(Cl)ccc1C)C2=O` in your reply.
Result: 29400

Problem: Supply measured AUC(0-inf) of `COc1ccc(-c2nc3c(n2C(C)C)[C@@]2(C(=O)Nc4cc(Cl)ccc42)N(c2cc(Cl)cnc2C)C3=O)c(OC)c1` in your reply.
Result: 3630

Problem: Supply measured AUC(0-inf) of `COc1cc(OC(C)C)ncc1-c1nc2c(n1C(C)C)[C@@]1(C(=O)Nc3cc(Cl)ccc31)N(c1cc(Cl)ccc1C)C2=O` in your reply.
Result: 53200

Problem: Supply measured AUC(0-inf) of `COc1cc(OC)c(-c2nc3c(n2C(C)C)[C@@]2(C(=O)Nc4cc(Cl)ccc42)N(c2cccc(Cl)c2)C3=O)cn1` in your reply.
Result: 2590

Problem: Supply measured AUC(0-inf) of `CCOc1cc(OC)c(-c2nc3c(n2C(C)C)[C@@]2(C(=O)Nc4cc(Cl)ccc42)N(c2cc(Cl)ccc2C)C3=O)cn1` in your reply.
Result: 11900

Problem: Supply measured AUC(0-inf) of `COc1cc(OC)c(-c2nc3c(n2C(C)C)[C@@]2(C(=O)Nc4cc(Cl)ccc42)N(c2cc(Cl)ccc2F)C3=O)cn1` in your reply.
Result: 4700

====

Assay: Pharmacokinetics in ICR mice after intravenous and intragastric administration
Type: in vivo
Settings: male, ICR, mouse, plasma, po, 5 mg/kg, PO 5 mg/kg, ICR mice, Mean; read-out: AUC(0-t)
RESULT TYPE: AUC(0-t) (ng·h/mL)
The response must be a number in ng·h/mL with no trailing unit.

Problem: Supply measured AUC(0-t) of `COc1ncc(-c2nc3c(n2C(C)C)[C@@]2(C(=O)Nc4cc(Cl)ccc42)N(c2cc(Cl)ccc2C)C3=O)c(OC)n1` in your reply.
Result: 3730

Problem: Supply measured AUC(0-t) of `COc1ccc(-c2nc3c(n2C(C)C)[C@@]2(C(=O)Nc4cc(Cl)ccc42)N(c2cc(Cl)ccc2C)C3=O)c(OC)c1` in your reply.
Result: 7330

Problem: Supply measured AUC(0-t) of `COc1cc(N(C)C)ccc1-c1nc2c(n1C(C)C)[C@@]1(C(=O)Nc3cc(Cl)ccc31)N(c1cc(Cl)ccc1C)C2=O` in your reply.
Result: 8010

====

For each of the molecules below, state its AUC(0-inf).
Test: Pharmacokinetics in ICR mice after intravenous and intragastric administration
Assay type: in vivo
Details: male, ICR, mouse, plasma, iv, 2 mg/kg, ICR mice, IV 2 mg/kg, mean of 3 animals
The response must be a number in ng·h/mL with no trailing unit.

Problem: Supply measured AUC(0-inf) of `COc1cc(OC(C)C)ncc1-c1nc2c(n1C(C)C)[C@@]1(C(=O)Nc3cc(Cl)ccc31)N(c1cc(Cl)ccc1C)C2=O` in your reply.
Result: 52100

Problem: Supply measured AUC(0-inf) of `COc1cc(C2CC2)ncc1-c1nc2c(n1C(C)C)[C@@]1(C(=O)Nc3cc(Cl)ccc31)N(c1cc(Cl)ccc1C)C2=O` in your reply.
Result: 8120

Problem: Supply measured AUC(0-inf) of `COc1nc(C2CC2)ncc1-c1nc2c(n1C(C)C)[C@@]1(C(=O)Nc3cc(Cl)ccc31)N(c1cc(Cl)cnc1C)C2=O` in your reply.
Result: 4500

Problem: Supply measured AUC(0-inf) of `CCOc1ncc(-c2nc3c(n2C(C)C)[C@@]2(C(=O)Nc4cc(Cl)ccc42)N(c2cc(Cl)cnc2C)C3=O)c(OC)n1` in your reply.
Result: 6450

Problem: Supply measured AUC(0-inf) of `CCOc1cc(OC)c(-c2nc3c(n2C(C)C)[C@@]2(C(=O)Nc4cc(Cl)ccc42)N(c2cc(Cl)ccc2C)C3=O)cn1` in your reply.
Result: 13800

Problem: Supply measured AUC(0-inf) of `COc1nc(N(C)C)ncc1-c1nc2c(n1C(C)C)[C@@]1(C(=O)Nc3cc(Cl)ccc31)N(c1cc(Cl)cnc1C)C2=O` in your reply.
Result: 7730

All values here come from patent US11339171B2.
